Molecular target: human M2R (Homo sapiens, UniProt P08172)
Sequence (P08172 whole entry): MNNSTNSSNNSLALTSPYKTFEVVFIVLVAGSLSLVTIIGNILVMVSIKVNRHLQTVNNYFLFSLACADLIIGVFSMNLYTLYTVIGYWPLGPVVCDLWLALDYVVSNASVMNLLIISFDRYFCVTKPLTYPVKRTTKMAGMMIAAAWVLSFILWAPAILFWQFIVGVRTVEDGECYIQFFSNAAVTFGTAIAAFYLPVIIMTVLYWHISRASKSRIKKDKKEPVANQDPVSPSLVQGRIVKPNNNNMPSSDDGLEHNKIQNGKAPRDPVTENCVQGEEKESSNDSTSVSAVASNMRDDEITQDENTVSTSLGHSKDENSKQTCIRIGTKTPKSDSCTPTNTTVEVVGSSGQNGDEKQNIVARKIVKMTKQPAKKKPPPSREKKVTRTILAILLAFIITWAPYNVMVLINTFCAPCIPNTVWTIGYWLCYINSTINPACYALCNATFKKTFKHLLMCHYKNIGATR
Assay: [3H]scopolamine radioligand competition binding at M2R
Settings: read-out: Ki at M2Rs; full dose-response competition binding; interpolated
pKi: −log10 of the molar value.
Measured quantity: pKi

CCC(C(=O)c1ccccc1)N1CCCC1 (stereo not shown): 4.40

###

Measured pKi values are reported for all entries that follow.
Target: human M2R (Homo sapiens, UniProt P08172)
Experiment: [3H]scopolamine radioligand competition binding at M2R
Conditions: read-out: Ki at M2Rs; full dose-response competition binding
pKi: −log10 of the molar value.
Measured quantity: pKi

CCCC(C(=O)c1ccccc1)N1CCCC1 (centres unmarked): 6.08
CCCCC(C(=O)c1ccccc1)N1CCCC1 (centres unmarked): 6.60

###

Biological target: human M1R (Homo sapiens, UniProt P11229)
Sequence (P11229 whole entry): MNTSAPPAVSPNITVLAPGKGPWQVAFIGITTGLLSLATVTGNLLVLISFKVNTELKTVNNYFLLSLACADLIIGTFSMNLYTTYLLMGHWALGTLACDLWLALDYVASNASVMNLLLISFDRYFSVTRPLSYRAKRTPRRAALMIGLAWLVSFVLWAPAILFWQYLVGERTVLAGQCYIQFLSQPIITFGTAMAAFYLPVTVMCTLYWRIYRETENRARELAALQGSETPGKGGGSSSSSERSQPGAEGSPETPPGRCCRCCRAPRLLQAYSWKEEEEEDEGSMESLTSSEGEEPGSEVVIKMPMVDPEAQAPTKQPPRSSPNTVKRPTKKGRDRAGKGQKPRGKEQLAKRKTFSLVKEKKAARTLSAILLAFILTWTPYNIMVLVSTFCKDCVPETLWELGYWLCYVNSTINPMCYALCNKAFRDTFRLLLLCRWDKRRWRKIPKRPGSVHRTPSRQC
Format: binding
Settings: read-out: Ki at M1Rs; full dose-response competition binding
pKi: −log10 of the molar value.
Measured quantity: pKi

CCCCC(C(=O)c1ccccc1)N1CCCC1 (stereo not drawn) [α-PHP, α-pyrrolidinohexiophenone]: 5.80

###

Biological target: UniProt:P08172
Assay: M2R cAMP signaling
pEC50: −log10 of the molar value.
Measured quantity: pEC50

O=C1CCCN1CC#CCN1CCCC1 [oxotremorine, reference compound]: 7.54
